Would you kindly list binding signal for each of these sequences?
Biological target: NL_v2_PPR7 (Artificial Sequence)
Chain: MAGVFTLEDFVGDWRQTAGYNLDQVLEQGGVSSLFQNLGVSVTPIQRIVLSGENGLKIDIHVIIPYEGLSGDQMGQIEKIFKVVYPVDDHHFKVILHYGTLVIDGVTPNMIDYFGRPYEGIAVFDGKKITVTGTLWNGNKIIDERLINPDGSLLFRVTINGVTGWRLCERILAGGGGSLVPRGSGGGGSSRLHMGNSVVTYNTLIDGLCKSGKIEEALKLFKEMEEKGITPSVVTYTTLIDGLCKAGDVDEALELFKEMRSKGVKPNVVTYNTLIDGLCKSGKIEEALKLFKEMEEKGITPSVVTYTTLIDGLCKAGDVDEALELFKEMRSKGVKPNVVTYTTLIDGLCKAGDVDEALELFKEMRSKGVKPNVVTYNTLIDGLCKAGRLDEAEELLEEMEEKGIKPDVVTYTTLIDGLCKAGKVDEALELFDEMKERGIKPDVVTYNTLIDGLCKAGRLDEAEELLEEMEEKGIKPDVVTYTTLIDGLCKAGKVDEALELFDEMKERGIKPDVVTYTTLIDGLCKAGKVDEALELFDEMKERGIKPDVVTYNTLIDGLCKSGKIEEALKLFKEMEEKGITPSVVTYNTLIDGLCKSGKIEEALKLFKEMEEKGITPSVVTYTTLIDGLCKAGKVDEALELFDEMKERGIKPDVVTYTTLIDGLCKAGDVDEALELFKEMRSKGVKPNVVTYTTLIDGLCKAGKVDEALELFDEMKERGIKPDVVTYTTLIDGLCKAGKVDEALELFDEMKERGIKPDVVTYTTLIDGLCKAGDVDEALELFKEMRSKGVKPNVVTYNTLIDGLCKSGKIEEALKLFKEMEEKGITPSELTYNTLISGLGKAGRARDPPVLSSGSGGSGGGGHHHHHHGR
Experiment: RPB-ELISA
Conditions: tags: N-terminal luciferase, C-terminal 6xHis; label: 5'-biotin; ssRNA
Protocol: RNA probes consisting of a designed 30-base sequence containing 18 bases of the target sequence and modified by biotinylation at the 5′ end (RNA_1, RNA_2, RNA_3, RNA_4, and RNA_5, SEQ ID NOS: 61 to 65) were synthesized (Grainer). […] Then, 100 μL of E. coli lysate containing luciferase-fused PPR protein having a luminescence level of 1.5×10⁸ LU/μL was added to each well, and the binding reaction was allowed at room temperature for 30 minutes. […]
Reply numerically in log2 luminescence, unit not repeated.

Lab entry: NL_v2_PPR7 (Artificial Sequence) assay, sequence GUCAGAGGGUUCUGGAUU , binding signal = 21.1

Lab entry: NL_v2_PPR7 (Artificial Sequence) assay, sequence GGUUAGAGAUACAGUGUG , binding signal = 20.6

Lab entry: NL_v2_PPR7 (Artificial Sequence) assay, sequence GACUCAGGAAUCGGCUCU , binding signal = 20.5

Lab entry: NL_v2_PPR7 (Artificial Sequence) assay, sequence GGUGGUGAGGCCCUGGGC , binding signal = 21.4
